- tested.system: B1-AR (Homo sapiens)
- Construct: expressed in transfected cells; host or cells: CHO-K1
- protocol.notes: cAMP Gs dynamic HTRF assay, cells expressing beta-adrenergic receptor (CHO-K1), B1-AR
- Format: cell-based
- details: relative to full agonist isoproterenol, read-out: Emax (% iso) (%) [B1-AR]
// values below are reported Emax

Worked examples follow.
compound="Cc1nc(N)c(Cl)cc1[C@@H](O)CNC1COC1 [I-146]" test_value="< 50%"
compound="CC1(N[C@@H](CO)c2cncc3[nH]ncc23)CC1 [I-149]" test_value="< 50%"
compound="CC(C)(C)NC[C@H](O)c1ccc(Cl)c2[nH]nc(F)c12 [I-189]" test_value="> 90%"
compound="CC(C)(C)NC[C@H](O)c1ccc2nccnc2c1 [I-83]" test_value="70 to 90%"
compound="CC(C)(NC[C@H](O)c1ccc(F)c2[nH]ncc12)C1CC1 [I-21]" test_value="> 90%"

Q: Item under review: O[C@@H](CNCC1CC1)c1cccc2[nH]ncc12 [I-76] . Reported Emax?
Ans: 70 to 90%

Q: What Emax value was documented for this compound, CC(C)[C@@H](C)NC[C@H](O)c1cccc2[nH]nc(F)c12 [I-38] ?
Ans: 70 to 90%

----------
- tested.system: B1-AR (Homo sapiens, UniProt P08588)
- Construct: expressed in transfected cells; host or cells: CHO-K1
- Sequence (P08588 whole entry, species assumed): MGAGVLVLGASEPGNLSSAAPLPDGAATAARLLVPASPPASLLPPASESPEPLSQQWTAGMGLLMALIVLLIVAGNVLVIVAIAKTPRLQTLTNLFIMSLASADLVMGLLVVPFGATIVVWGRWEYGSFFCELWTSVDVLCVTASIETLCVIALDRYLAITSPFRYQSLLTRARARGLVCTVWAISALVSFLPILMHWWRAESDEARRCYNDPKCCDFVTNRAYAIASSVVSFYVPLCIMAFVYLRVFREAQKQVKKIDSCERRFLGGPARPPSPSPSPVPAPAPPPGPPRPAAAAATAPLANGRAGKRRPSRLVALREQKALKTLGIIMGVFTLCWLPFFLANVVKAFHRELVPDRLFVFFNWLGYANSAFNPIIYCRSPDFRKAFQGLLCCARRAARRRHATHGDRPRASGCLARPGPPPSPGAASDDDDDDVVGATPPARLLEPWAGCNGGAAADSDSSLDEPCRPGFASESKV
- protocol.notes: cAMP Gs dynamic HTRF assay, cells expressing beta-adrenergic receptor (CHO-K1), B1-AR
- Type: cell-based
- details: relative to full agonist isoproterenol, read-out: Emax (% iso) (%) [B1-AR]
compounds and their reported Emax

Q: Emax for CC(C)[C@@H](C)NC[C@H](O)c1cc(F)cc2[nH]ncc12 ?
Ans: > 90%

Q: Which Emax reading was recorded for the compound Cc1nc(N)c(Cl)cc1[C@@H](O)CNC(CO)CO ?
Ans: 70 to 90%

Q: State the recorded Emax for this entry: CC(C)C(C)(C)NC[C@H](O)c1cccc2[nH]ncc12
Ans: > 90%

Q: Entry CC(C)C(C)(C)NC[C@H](O)c1ccc(F)c2[nH]ncc12 : reported Emax = ?
Ans: > 90%

Q: Item Cc1ccnc2ccc([C@@H](O)CNC(C)(C)C)cc12 has what recorded Emax?
Ans: 50 to 70%

----------
Reported values of EC50 for individual entries
- tested.system: B1-AR (Homo sapiens)
- Construct: expressed in transfected cells; host or cells: CHO-K1
- protocol.notes: cAMP Gs dynamic HTRF assay, cells expressing beta-adrenergic receptor (CHO-K1), B1-AR
- Type: cell-based
- details: cAMP HTRF, read-out: pEC50 [B1-AR] (converted)

Below, each entry is followed by its recorded EC50 result.
chemical_structure=C[C@H](NC[C@H](O)c1cccc2[nH]ncc12)C1CC1 assay_metric=EC50 test_value="< 10 nM"
chemical_structure=Cc1cc([C@@H](O)CNC2CCC2)c2cn[nH]c2c1 assay_metric=EC50 test_value="< 10 nM"
chemical_structure=Cc1nc(N)c(Cl)cc1[C@@H](O)CNC(CO)CO assay_metric=EC50 test_value="> 1000 nM"
chemical_structure=Cc1ccnc2ccc([C@@H](O)CNC(C)(C)C)cc12 assay_metric=EC50 test_value="100 to 1000 nM"
chemical_structure=CC(C)(C)NC[C@H](O)c1cccc2[nH]nc(Cl)c12 assay_metric=EC50 test_value="< 10 nM"
chemical_structure=Cn1ncc2c([C@@H](O)CNC(C)(C)C)cc(F)cc21 assay_metric=EC50 test_value="10 to 100 nM"
chemical_structure=CC(C)CNC[C@H](O)c1cc(C#N)cc2[nH]ncc12 assay_metric=EC50 test_value="100 to 1000 nM"
chemical_structure=CC(C)(C)NC[C@H](O)c1ccc2nccnc2c1 assay_metric=EC50 test_value="10 to 100 nM"

Q: Recorded EC50 of Cc1ncccc1[C@@H](O)CNC(C)(C)CO , please.
Ans: > 1000 nM

Q: What value of EC50 has been reported for the following compound? Cc1n[nH]c2cc(F)cc([C@@H](O)CNC(C)(C)C)c12
Ans: 10 to 100 nM

Q: Entry under review: CC(C)CNC[C@H](O)c1cccc2[nH]ncc12 . Reported EC50?
Ans: 10 to 100 nM

Q: # EC50 lookup, item C[C@@H](NC[C@H](O)c1cccc2[nH]ncc12)C1CC1
Ans: < 10 nM

Q: State the recorded EC50 for this entry: CC(C)(C)C(C)(C)NC[C@H](O)c1ccc(F)c2[nH]ncc12
Ans: > 1000 nM

Q: Item under review: CCC(C)(CC)NC[C@H](O)c1ccc(F)c2[nH]ncc12 . Reported EC50?
Ans: < 10 nM

Q: What does the record list as EC50 for CCC(C)(C)NC[C@H](O)c1cncc2[nH]ncc12 ?
Ans: 100 to 1000 nM

Q: // returns reported EC50 for input CC(C)(C)NC[C@H](O)c1cccc2[nH]nc(C3CC3)c12
Ans: 100 to 1000 nM

Q: For the compound shown here, CC(C)(C)NC[C@H](O)c1cccc2[nH]c(=O)sc12 , give the reported EC50.
Ans: < 10 nM

----------
- tested.system: B2-AR (Homo sapiens, UniProt P07550)
- Construct: expressed in transfected cells; host or cells: CHO-K1
- Sequence (P07550 whole entry, species assumed): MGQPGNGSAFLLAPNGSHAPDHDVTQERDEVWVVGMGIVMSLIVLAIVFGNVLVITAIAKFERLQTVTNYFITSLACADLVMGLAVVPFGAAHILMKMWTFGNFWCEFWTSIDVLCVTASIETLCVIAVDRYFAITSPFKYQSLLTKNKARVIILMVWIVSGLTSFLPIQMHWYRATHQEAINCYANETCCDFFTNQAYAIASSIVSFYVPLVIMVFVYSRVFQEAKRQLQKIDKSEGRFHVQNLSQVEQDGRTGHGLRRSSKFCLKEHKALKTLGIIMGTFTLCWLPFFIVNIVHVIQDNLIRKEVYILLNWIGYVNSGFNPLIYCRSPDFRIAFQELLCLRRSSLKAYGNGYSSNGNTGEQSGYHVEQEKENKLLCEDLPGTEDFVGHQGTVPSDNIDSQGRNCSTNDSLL
- protocol.notes: cAMP Gs dynamic HTRF assay, cells expressing beta-adrenergic receptor (CHO-K1), B2-AR
- Format: cell-based
- details: CHO-K1 cells, cAMP HTRF; read-out: pEC50 [B2-AR] (converted)
Recorded measurements of EC50, one per entry

chemical_structure=CC(C)(C)NC[C@H](O)c1cc(C2CC2)cc2[nH]ncc12 assay_metric=EC50 test_value="10 to 100 nM"

Q: Look up EC50 for this molecule: COc1ccc(C[C@@H](C)NC[C@H](O)c2ccc(F)c3[nH]ncc23)cc1
Ans: < 10 nM

Q: Look at this molecule and give its reported EC50. Cc1cc([C@@H](O)CNC2CCC2)c2cn[nH]c2c1
Ans: < 10 nM

Q: Item CC(C)(C)NC[C@H](O)c1cccc2[nH]c(=O)sc12 has what recorded EC50?
Ans: < 10 nM

Q: Can you share its EC50? I mean this molecule: Cc1cnc2ccc([C@@H](O)CNC(C)(C)C)cc2c1
Ans: 100 to 1000 nM

Q: // EC50 lookup, key: CC[C@@H](C)NC[C@H](O)c1cc(F)cc2[nH]ncc12
Ans: < 10 nM

Q: So what's the measured EC50 for this one? CC1(N[C@H](CO)c2cncc3[nH]ncc23)CC1
Ans: > 1000 nM

Q: // EC50 lookup, key: CC1(NC[C@H](O)c2cncc3[nH]ncc23)CCC1
Ans: 10 to 100 nM

Q: # get_value(readout='EC50', item= CC(C)(C)CNC[C@H](O)c1cc(F)cc2[nH]ncc12 )
Ans: < 10 nM

Q: For CC1(NC[C@H](O)c2cccc3[nH]cc(F)c23)CCC1 , what is its reported EC50?
Ans: < 10 nM

Q: Could you tell me which EC50 is on file for Cc1ccc([C@@H](O)CNC(C)(C)C)c2c(F)n[nH]c12 ?
Ans: < 10 nM

Q: Given the entry CC(C)(CO)NC[C@H](O)c1cccc2[nH]cc(F)c12 , report its measured EC50.
Ans: 10 to 100 nM

Q: Query: EC50; subject: CC(C)(CO)NC[C@H](O)c1ccc(Cl)c2[nH]ncc12
Ans: < 10 nM

Q: I would be grateful if you could share the reported EC50 for CCC(CC)NC[C@H](O)c1ccc(F)c2[nH]ncc12 .
Ans: < 10 nM

Q: Entry CC(C)C(C)(C)NC[C@H](O)c1cc(F)cc2[nH]ncc12 : reported EC50 = ?
Ans: < 10 nM

Q: Look up EC50: CCC(C)(C)NC[C@H](O)c1cccc2[nH]nc(F)c12
Ans: < 10 nM

----------
Measured Emax of individual entries
- tested.system: B2-AR (Homo sapiens)
- Construct: expressed in transfected cells; host or cells: CHO-K1
- protocol.notes: cAMP Gs dynamic HTRF assay, cells expressing beta-adrenergic receptor (CHO-K1), B2-AR
- Type: cell-based
- details: CHO-K1, CHO-K1 cells, relative to full agonist isoproterenol; read-out: Emax (% iso) (%) [B2-AR]

molecule="Cc1nc(N)ccc1[C@@H](O)CNC(C)(C)C [I-150]" assay_metric=Emax test_value="> 90%"
molecule="CC(C)(C)NC[C@@H](O)c1cccc(Br)n1 [I-143]" assay_metric=Emax test_value="50 to 70%"
molecule="CC(C)c1cc([C@@H](O)CNC(C)(C)C)c2cn[nH]c2c1 [I-104]" assay_metric=Emax test_value="70 to 90%"

Q: Data request, read-out Emax, for O[C@@H](CNCC1CC1)c1ccc(F)c2[nH]ncc12 [I-75]
Ans: > 90%
